# Measurement description: Tetrazolium-based cell viability assay (cytotoxicity)
# Experimental parameters: human
Outcome measure: CC50 at 96 h

For orientation, consider the following solved cases.
INSERT INTO measurements (compound, obs_value) VALUES
  ('CCOc1cc(C)n(C(CNc2cnc3ccccc3c2)C(C)c2cccnc2C)n1 (centres unmarked)', '> 50 µM'),
  ('CC(c1cnc2ccccc2c1)C(F)C1N(Cc2ccccc2)C(=O)c2cccnc2N1C (centres unmarked)', '> 50 µM');

Problem: Using the record for Cc1cc(-c2ccccc2)nn1C1CN(Cc2cccc(C(F)(F)F)c2)C(=O)C1C(C)C (centres unmarked) , report its CC50 at 96 h.
Result: 25 to 50 µM

Problem: Follow-up item: COc1ccc(C(C)C(CN2CCc3ccccc3C2)n2nc(-c3cccnc3)cc2N)cc1 (centres unmarked)
Result: > 50 µM

Problem: Follow-up item: CNC(=O)c1cccc(CN(CCC(C)C(C)C)S(=O)(=O)c2cn(C)cn2)c1 (centres unmarked)
Result: > 50 µM

###

CC50 at 96 h values by entry
# Measurement description: Tetrazolium-based cell viability assay (cytotoxicity)
# Experimental parameters: human

INSERT INTO measurements (compound, obs_value) VALUES
  ('CNC(=O)c1cccc(CN(CCC(C)C(C)C)S(=O)(=O)c2c(C)noc2C)c1 (centres unmarked)', '25 to 50 µM');

Problem: Using the record for CC(c1ccccc1Cl)C1CN(C2CCC(O)CC2)S(=O)(=O)c2c(F)cccc2O1 (centres unmarked) , report its CC50 at 96 h.
Result: > 50 µM

Problem: Follow-up item: CCN1CC(C(C)c2ccc(C)nc2)Oc2ccc(C(F)(F)F)cc2C1=O (centres unmarked)
Result: > 50 µM

Problem: Follow-up item: CC(C)c1cc(N)n(C(C(=O)O)C(C)c2ccccc2Cl)n1 (centres unmarked)
Result: > 50 µM

Problem: Follow-up item: Cc1nn(C2CN(CCn3ccnc3)C(=O)C2c2ccccc2)c(C)c1C (centres unmarked)
Result: > 50 µM

###

# Assayed target: SIRT1 (Homo sapiens, UniProt Q96EB6)
# Construct: purchased Cayman Chemical
# Sequence (Q96EB6 whole entry): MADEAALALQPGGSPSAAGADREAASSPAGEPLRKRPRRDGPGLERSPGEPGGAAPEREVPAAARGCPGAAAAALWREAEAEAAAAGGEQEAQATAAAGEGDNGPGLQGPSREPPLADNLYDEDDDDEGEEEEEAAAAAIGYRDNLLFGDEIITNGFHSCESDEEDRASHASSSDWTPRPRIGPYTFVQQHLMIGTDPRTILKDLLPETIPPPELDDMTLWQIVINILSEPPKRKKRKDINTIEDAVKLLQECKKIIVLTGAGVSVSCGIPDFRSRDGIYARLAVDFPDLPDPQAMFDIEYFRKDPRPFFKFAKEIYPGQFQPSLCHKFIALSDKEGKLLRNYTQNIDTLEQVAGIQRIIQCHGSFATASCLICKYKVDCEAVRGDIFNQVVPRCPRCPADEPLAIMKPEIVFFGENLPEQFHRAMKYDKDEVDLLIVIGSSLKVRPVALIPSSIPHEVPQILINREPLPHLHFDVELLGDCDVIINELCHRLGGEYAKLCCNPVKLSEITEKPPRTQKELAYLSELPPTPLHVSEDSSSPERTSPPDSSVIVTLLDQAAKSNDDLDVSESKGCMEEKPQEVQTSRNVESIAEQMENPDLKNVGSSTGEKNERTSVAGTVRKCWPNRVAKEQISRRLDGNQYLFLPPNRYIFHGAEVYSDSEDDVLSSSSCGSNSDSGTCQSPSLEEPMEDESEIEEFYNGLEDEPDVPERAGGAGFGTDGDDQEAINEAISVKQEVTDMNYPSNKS
# Measurement description: Sirtuin deacetylase enzyme activity assay (Cayman Chemical), compound screen
# Type: biochemical
# Experimental parameters: compound at 50 μM; Z-score of change in fluorescent signal; + increase, − decrease
Outcome measure: SIRT1 (change in sirtuin deacetylase activity, Z-score class)

For orientation, consider the following solved cases.
INSERT INTO results (compound, obs_value) VALUES
  ('CC(c1ccc(F)cc1)C(O)Cn1cc(-c2cc(Cl)cnc2N)nn1 (stereo not drawn)', '+++ (Z-score ≧ 3 = +++)'),
  ('CC(c1ccncc1)C(O)Cn1cc(-c2cc(Cl)cnc2N)nn1 (stereo not drawn)', '+++ (Z-score ≧ 3 = +++)'),
  ('COc1ccc(C(C)C(CN2CCc3ccccc3C2)n2nc(-c3cccnc3)cc2N)cc1 (stereo not drawn)', '−−− (Z-score ≦ −3 = −−−)'),
  ('COc1ccccc1C(C)C(F)CNc1cnc2ccccc2c1 (stereo not drawn)', '+++ (Z-score ≧ 3 = +++)'),
  ('COc1cccc(CN2C(=O)c3cccnc3N(C)C2C(F)C(C)c2cnc3ccccc3c2)c1 (stereo not drawn)', '+++ (Z-score ≧ 3 = +++)');

Problem: API: value(readout= SIRT1 (change in sirtuin deacetylase activity, Z-score class), system= SIRT1 (Homo sapiens, UniProt Q96EB6), query= Cc1nn(C2CN(CCn3ccnc3)C(=O)C2c2ccccc2)c(C)c1C (stereo not drawn) )
Result: −−− (Z-score ≦ −3 = −−−)

Problem: Follow-up item: CC(c1cnc2ccccc2c1)C(F)C1N(Cc2ccccc2)C(=O)c2cccnc2N1C (stereo not drawn)
Result: +++ (Z-score ≧ 3 = +++)

Problem: Follow-up item: COc1cccc(C(C)C(O)Cn2cc(-c3cc(Cl)cnc3N)nn2)c1 (stereo not drawn)
Result: +++ (Z-score ≧ 3 = +++)

Problem: Follow-up item: Cc1ccccc1C(C)C(CO)NC(=O)c1cn(C)cn1 (stereo not drawn)
Result: −−− (Z-score ≦ −3 = −−−)

Problem: Follow-up item: CCOc1cc(C(C)C)n(C(CNc2cnc3ccccc3c2)C(C)c2cccnc2C)n1 (stereo not drawn)
Result: +++ (Z-score ≧ 3 = +++)
